Origin of measurements: patent US20240279318A1

Answer each item with its documented Affinity increase.
target.system: T1, AFP158/HLA-A*02:01 complex (human)
T1 construct: flowed as analyte in SPR
method.description: SPR, fold vs AS170036 VL1VH1;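 further: crude scFv muteins immobilised on a sensor chip, peptide–MHC complex passed over at several concentrations, binding then buffer-driven dissociation, KD estimated from on- and off-rates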
// note: answer is a bare numeric in fold

Asked: Item AS170036 VL1VH1-57M98I108D (scFv, also called 80-AS170036 VL1VH1-57M98I108D) scFv: QSALTQPRSVSGSPGQSVTISCAGTSSDVGSENYVSWYQQHPGKAPKLMIYQVNKRASGVPDRFSGSKSGNTASLTISGLQAEDEADYYCASYRSSDINIVFGGGTKLTVLGGGGSGGGGSGGGGSEVQLVESGGGLVQPGGSLRLSCAASGFTFSSYAMSWVRQAPGKGLEWVSTINSGTGMPYYADSVKGRFTISRDNSKNTLYLQMNSLRAEDTAVYYCAKNFFDGSWFLDPPAMDYWGQGTLVTVSSHHHHHH : provide Affinity increase
Given back: 20.5

Asked: Note Affinity increase for the binder shown: AS170036 VL1VH1-57H98F108A (scFv, also called 58-AS170036 VL1VH1-57H98F108A) scFv: QSALTQPRSVSGSPGQSVTISCAGTSSDVGSENYVSWYQQHPGKAPKLMIYQVNKRASGVPDRFSGSKSGNTASLTISGLQAEDEADYYCASYRSSDFNIVFGGGTKLTVLGGGGSGGGGSGGGGSEVQLVESGGGLVQPGGSLRLSCAASGFTFSSYAMSWVRQAPGKGLEWVSTINSGTGHPYYADSVKGRFTISRDNSKNTLYLQMNSLRAEDTAVYYCAKNFFDGSWFLAPPAMDYWGQGTLVTVSSHHHHHH
Given back: 146

Asked: Item AS170036 VL1VH1-57M98Q108A (scFv, also called 82-AS170036 VL1VH1-57M98Q108A) scFv: QSALTQPRSVSGSPGQSVTISCAGTSSDVGSENYVSWYQQHPGKAPKLMIYQVNKRASGVPDRFSGSKSGNTASLTISGLQAEDEADYYCASYRSSDQNIVFGGGTKLTVLGGGGSGGGGSGGGGSEVQLVESGGGLVQPGGSLRLSCAASGFTFSSYAMSWVRQAPGKGLEWVSTINSGTGMPYYADSVKGRFTISRDNSKNTLYLQMNSLRAEDTAVYYCAKNFFDGSWFLAPPAMDYWGQGTLVTVSSHHHHHH : provide Affinity increase
Given back: 43
